Values were extracted from the supplement of paper PMC10941209.

- Test system: Toxoplasma gondii RH 2F1 tachyzoites (intracellular in HFF)
- methodDescription: parasite survival relative to DMSO control; higher = less antiparasitic activity, active = 20 or less
- conditionNotes: 1 µM; 72 h
Allowed answers: True for active, False for inactive

Request: GET /call?item= CCc1ccccc1OCCN1CCCCCC1 returns the recorded outcome of this test.
Result: False

Request: GET /call?item= C[C@@H](c1nc(-c2ccc(C#N)cc2)cs1)[C@](O)(Cn1cncn1)c1ccc(F)cc1F returns the recorded outcome of this test.
Result: False

Request: GET /call?item= CCCCCCCCCN1C[C@@H](O)[C@H](O)[C@@H](O)[C@@H]1CO returns the recorded outcome of this test.
Result: False

Request: GET /call?item= Oc1cccc(C(Nc2nccs2)c2ccc3cccnc3c2O)c1 (stereo unspecified) returns the recorded outcome of this test.
Result: True

Request: GET /call?item= O=C(O)c1ccc(-c2ccc(O[C@H]3O[C@H](CO)[C@@H](O)[C@H](O)[C@@H]3O)cc2)cc1 returns the recorded outcome of this test.
Result: False

Request: GET /call?item= C[C@@H](NC(=O)c1ccccc1-c1ccccc1)B(O)O returns the recorded outcome of this test.
Result: False

====

- Tested on: Toxoplasma gondii RH 2F1 tachyzoites (intracellular in HFF)
- methodDescription: parasite survival relative to DMSO control; higher = less antiparasitic activity, active = 20 or less
- conditionNotes: 1 µM; 72 h
Would you mind labelling by parasite survival? At or over 60% is Y, under is N.

Example results:
molecule	assignedClass
CCCCCCCCC(CP(=O)(O)C(C)N)C(=O)O (stereo not drawn)	Y
Nc1nc(Nc2ccc3nc(-c4ccc(F)cc4)cc(N)c3c2)cc(-c2ccccc2)n1	N
CCNC(=O)Nc1cc(-c2ccccc2)c(-c2cncc(C(=O)O)c2)cn1	N

Request: For this molecule, is measured parasite survival 60% or higher? CSC[C@H]1CN(Cc2c[nH]c3c(N)ncnc23)C[C@@H]1O
Result: N

Request: For this molecule, is measured parasite survival 60% or higher? N#Cc1c(F)c(Cl)c(NCc2ccccc2)c(C#N)c1F
Result: N

Request: For this molecule, is measured parasite survival 60% or higher? CCc1cc(Cc2cnc(N)nc2N)cc2c1N(C)CCC2C (stereo not drawn)
Result: N

Request: For this molecule, is measured parasite survival 60% or higher? CCCCOC(=O)Nc1cc2nc(C3CCCCC3)[nH]c2cc1N(CC)CC
Result: N

Request: For this molecule, is measured parasite survival 60% or higher? CCn1cc(C(=O)O)c(=O)c2cc(F)c(N3CCNC(C)C3)c(F)c21 (stereo not drawn)
Result: Y

====

- Test system: Toxoplasma gondii RH 2F1 tachyzoites (intracellular in HFF)
- methodDescription: parasite survival relative to DMSO control; higher = less antiparasitic activity, active = 20 or less
- conditionNotes: 1 µM; 72 h
Would you mind labelling by parasite survival? At or over 50% is Yes, under is No.

Example results:
compound	assignedClass
CC(C)(C)c1cc(C(=O)/C(C#N)=N/Nc2cccc(Cl)c2)no1	No
CC(=O)N[C@H](C)C(=O)N[C@H](Cc1ccccc1)C(=O)O	Yes
CN(C)[C@@H]1C(=O)C(C(N)=O)=C(O)[C@@]2(O)C(=O)C3=C(O)c4c(O)c(NC(=O)CN5CCCC5)cc(F)c4C[C@H]3C[C@@H]12	No
CCc1oc2ccccc2c1C(=O)c1ccc(O)cc1	No
CC[C@@H]1C(=O)OC[C@@H]1Cc1cncn1C	No

Then there is this compound:
Request: For this compound, is measured parasite survival 50% or higher? CC(N)C12CC3CC(CC(C3)C1)C2 (configuration not stated)
Result: Yes

====

- Tested on: Toxoplasma gondii RH 2F1 tachyzoites (intracellular in HFF)
- methodDescription: parasite survival relative to DMSO control; higher = less antiparasitic activity, active = 20 or less
- conditionNotes: 1 µM; 72 h
observationType: parasite survival (%)
Report the figure in % without appending any unit label.

Sample answers from the record:
molecule	readoutUnits	parasite survival
C[C@@H]1O[C@@H]1P(=O)(O)O	%	46.3
O=C1C=C(c2ccccc2)S(=O)(=O)c2ccccc21	%	44.4
COc1cc2c(O)c3c(c(-c4ccc5c(c4)OCO5)c2cc1OC)C(=O)OC3	%	46.1
CC(C)CCN1C(=O)C(C2=NS(=O)(=O)c3cc(NS(C)(=O)=O)ccc3N2)=C(O)[C@@H]2[C@H]3CC[C@H](C3)[C@@H]21	%	72.3
CCNC(=O)Nc1cc2c(-c3ccnc(C)c3)ccc(CNC(=O)OC)c2cn1	%	31.9

Consider CC(=O)N1c2ccccc2NC2=C(C(=O)CC(C)(C)C2)C1c1ccc(OCc2ccccc2)cc1 (stereo not given) . Its measured parasite survival is 46.7

Consider O=C(N[C@H](CCS)C(=O)N[C@H](Cc1ccccc1)C(=O)O)c1cc2ccccc2[nH]1 . Its measured parasite survival is 45.8

Consider CC1CCc2c(N3CCC(O)CC3)c(F)cc3c(=O)c(C(=O)O)cn1c23 (stereo not given) . Its measured parasite survival is 51

Consider COc1cc(Cc2cnc(N)nc2N)c2c(c1OC)OC(C1CC1)C=C2 (stereo not given) . Its measured parasite survival is 10.4

Consider c1cnc(NCc2ccc(CNc3ncccn3)cc2)nc1 . Its measured parasite survival is 71.1

Consider CC(=O)O[C@H]1C[C@@]2(C)[C@@H](C[C@@H](O)[C@H]3[C@@]4(C)CC[C@@H](O)[C@@H](C)[C@@H]4CC[C@@]32C)/C1=C(\CCC=C(C)C)C(=O)O . Its measured parasite survival is 48.4

Consider O=C(O)C[C@H]1CC[C@H](c2ccc(-c3ccc(Nc4ccc(C(F)(F)F)nc4)cn3)cc2)CC1 . Its measured parasite survival is 42.6

Consider Fc1ccc(-n2cc(Cn3c(-c4cccc(F)c4)nc4ccccc43)nn2)cc1 . Its measured parasite survival is 50.1

Consider COC(=O)Nc1nc2cc([S+]([O-])c3ccccc3)ccc2[nH]1 (stereo not given) . Its measured parasite survival is 59.2

Consider Cc1c(N)cccc1Cn1ccc(OCCc2cccs2)cc1=O . Its measured parasite survival is 48.8

Consider O=C(Nc1ncc(Cc2cccc3ccccc23)s1)C1CCCCC1 . Its measured parasite survival is 25.3

Consider CCc1nc2ccccn2c1C(=O)NCc1ccccc1 . Its measured parasite survival is 79.5

Consider O=C(NCc1cccc2ccccc12)c1cccs1 . Its measured parasite survival is 32

Consider O=C(Nc1ccc(Cl)c(C(F)(F)F)c1)C(CCCl)C(=O)Nc1ccc(Cl)c(C(F)(F)F)c1 . Its measured parasite survival is 15.6

Consider Oc1c(C(Nc2nc3ccccc3s2)c2ccc(OC(F)F)cc2)ccc2cccnc12 (stereo not given) . Its measured parasite survival is 4.28

====

- Tested on: Toxoplasma gondii RH 2F1 tachyzoites (intracellular in HFF)
- methodDescription: parasite survival relative to DMSO control; higher = less antiparasitic activity, active = 20 or less
- conditionNotes: 1 µM; 72 h
Allowed answers: active, inactive

molecule	assignedClass
O=[N+]([O-])c1cn(Cc2nc(O)nc(O)c2Br)cn1	inactive
Nc1nc(O)c2ncn([C@@H]3O[C@H](CO)[C@@H](O)[C@H]3F)c2n1	inactive
CCc1cc(CCCOc2c(C)cc(-c3noc(C(F)(F)F)n3)cc2C)on1	inactive
COc1ccc(C2=CC(c3c(F)cccc3Cl)n3ncnc3N2)cc1 (centres undefined)	inactive
CS(=O)(=O)c1ccc(Oc2ccc(Cl)cc2)cc1	inactive

Request: GET /call?item= CC(=O)Oc1ccccc1C(=O)Nc1ncc([N+](=O)[O-])s1 returns the recorded outcome of this test.
Result: inactive

Request: GET /call?item= O=C(Nc1ccccc1)N(Cc1cc(Br)ccc1O)c1ccc(F)cc1 returns the recorded outcome of this test.
Result: inactive

====

- Tested on: Toxoplasma gondii RH 2F1 tachyzoites (intracellular in HFF)
- methodDescription: parasite survival relative to DMSO control; higher = less antiparasitic activity, active = 20 or less
- conditionNotes: 1 µM; 72 h
Would you mind labelling by parasite survival? At or over 40% is Satisfied, under is Not satisfied.

molecule	assignedClass
Cc1[nH]c2ccccc2c1CC(=O)N[C@@H](Cc1ccccc1)C(=O)N(C)c1ccccc1	Satisfied

Request: For this molecule, is measured parasite survival 40% or higher? Nc1nc(F)nc2c1ncn2[C@H]1O[C@@H](CO)[C@H](O)[C@@H]1O
Result: Not satisfied

Request: For this molecule, is measured parasite survival 40% or higher? CNC(=O)C1O[C@@H](n2cnc3c(NCc4cccc(I)c4)nc(Cl)nc32)[C@H](O)[C@@H]1O (some centres undefined)
Result: Satisfied

Request: For this molecule, is measured parasite survival 40% or higher? COc1ccccc1CN[C@H]1C2CCN(CC2)[C@H]1C(c1ccccc1)c1ccccc1
Result: Not satisfied

Request: For this molecule, is measured parasite survival 40% or higher? COc1nc2ccc(Br)cc2cc1[C@@H](c1ccccc1)[C@@](O)(CCN(C)C)c1cccc2ccccc12
Result: Not satisfied

Request: For this molecule, is measured parasite survival 40% or higher? CC(C)Oc1ccc(-c2nc(-c3cccc4c3CC[C@@H]4NCCO)no2)cc1C#N
Result: Satisfied
